assay: self-splicing fitness, log relative to wild type (ln ratio); higher = more splicing; Tetrahymena group I intron in knt gene, E. coli kanamycin selection, DiMSum; sequences stand for … in CUCUCU…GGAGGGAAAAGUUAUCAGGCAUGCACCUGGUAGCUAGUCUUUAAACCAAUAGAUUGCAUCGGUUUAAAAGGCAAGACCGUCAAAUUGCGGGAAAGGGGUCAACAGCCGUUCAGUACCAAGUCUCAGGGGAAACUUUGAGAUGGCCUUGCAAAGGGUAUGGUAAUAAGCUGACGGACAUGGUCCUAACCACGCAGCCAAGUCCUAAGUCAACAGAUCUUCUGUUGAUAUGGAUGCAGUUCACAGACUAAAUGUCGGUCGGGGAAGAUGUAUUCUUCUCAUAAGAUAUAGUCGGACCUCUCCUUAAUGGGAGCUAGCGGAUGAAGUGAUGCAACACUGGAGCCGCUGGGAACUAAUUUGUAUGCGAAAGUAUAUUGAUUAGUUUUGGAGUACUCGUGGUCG; details: 37 °C;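 note: selection with 25 µg/mL kanamycin versus none on LB agar overnight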

SEQUENCE TEXT: AGCCAGCAAUAUUACGAUCU
self-splicing fitness (ln): 0.256
--
SEQUENCE TEXT: UAUCAGCAAUAUUACGAGCC
self-splicing fitness (ln): -2.33
--
SEQUENCE TEXT: GGCCAGCAAUAUUACGACCG
self-splicing fitness (ln): -0.323
--
SEQUENCE TEXT: AUUCAGCAAUAUUACGUGUA
self-splicing fitness (ln): -1.02
--
SEQUENCE TEXT: CCUUAGCAAUAUUACGCUGU
self-splicing fitness (ln): -2.49
--
SEQUENCE TEXT: UUUGAGCAAUAUUACGCCCU
self-splicing fitness (ln): -1.96
--
SEQUENCE TEXT: GAUCAGCAAUAUUACGCCGC
self-splicing fitness (ln): -1.19
--
SEQUENCE TEXT: UUCCAGCAAUAUUACGCUCA
self-splicing fitness (ln): 0.143

====

experiment: self-splicing fitness, log relative to wild type (ln ratio); higher = more splicing; Tetrahymena group I intron in knt gene, E. coli kanamycin selection, DiMSum; sequences stand for … in CUCUCU…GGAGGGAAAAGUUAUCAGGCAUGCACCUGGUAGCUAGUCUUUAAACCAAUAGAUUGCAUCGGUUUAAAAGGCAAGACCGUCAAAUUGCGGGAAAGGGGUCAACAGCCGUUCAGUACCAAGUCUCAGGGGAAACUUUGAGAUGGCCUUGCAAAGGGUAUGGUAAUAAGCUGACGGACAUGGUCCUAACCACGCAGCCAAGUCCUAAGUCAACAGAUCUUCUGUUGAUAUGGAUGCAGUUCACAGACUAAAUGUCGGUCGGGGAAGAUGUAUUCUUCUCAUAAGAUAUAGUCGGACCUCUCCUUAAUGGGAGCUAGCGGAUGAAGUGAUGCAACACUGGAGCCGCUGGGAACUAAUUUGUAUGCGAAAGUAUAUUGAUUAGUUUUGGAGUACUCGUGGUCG; details: 30 °C
Classify by measured self-splicing fitness (ln): Criterion met if it is equal to or exceeds -2, Criterion not met if it is smaller.

SEQUENCE TEXT: UAGUAGCAAUAUUACGAUAC
ASSIGNED CLASS: Criterion not met
--
SEQUENCE TEXT: CCAUAGCAAUAUUACGGGUC
ASSIGNED CLASS: Criterion not met
--
SEQUENCE TEXT: GAAAAGCAAUAUUACGGGUG
ASSIGNED CLASS: Criterion not met
--
SEQUENCE TEXT: CAUAAGCAAUAUUACGCCAC
ASSIGNED CLASS: Criterion not met
--
SEQUENCE TEXT: AUGUAGCAAUAUUACGGCGG
ASSIGNED CLASS: Criterion met
--
SEQUENCE TEXT: AUCCAGCAAUAUUACGUUGG
ASSIGNED CLASS: Criterion not met
--
SEQUENCE TEXT: GCAGAGCAAUAUUACGUCAC
ASSIGNED CLASS: Criterion not met
--
SEQUENCE TEXT: GUACAGCAAUAUUACGACUC
ASSIGNED CLASS: Criterion met
--
SEQUENCE TEXT: GUUCAGCAAUAUUACGCAAG
ASSIGNED CLASS: Criterion met
--
SEQUENCE TEXT: CAUGAGCAAUAUUACGGUUU
ASSIGNED CLASS: Criterion not met
--
SEQUENCE TEXT: AUACAGCAAUAUUACGAGGG
ASSIGNED CLASS: Criterion not met
--
SEQUENCE TEXT: CUGAAGCAAUAUUACGACAG
ASSIGNED CLASS: Criterion met
--
SEQUENCE TEXT: UGUCAGCAAUAUUACGCAGC
ASSIGNED CLASS: Criterion not met
--
SEQUENCE TEXT: UGGUAGCAAUAUUACGCACU
ASSIGNED CLASS: Criterion not met
--
SEQUENCE TEXT: GGGCAGCAAUAUUACGAUCC
ASSIGNED CLASS: Criterion met
--
SEQUENCE TEXT: CGGGAGCAAUAUUACGGUAC
ASSIGNED CLASS: Criterion not met
--
SEQUENCE TEXT: CCCAAGCAAUAUUACGUUAU
ASSIGNED CLASS: Criterion not met
--
SEQUENCE TEXT: GGCUAGCAAUAUUACGAUAC
ASSIGNED CLASS: Criterion met
--
SEQUENCE TEXT: CGCUAGCAAUAUUACGGUAG
ASSIGNED CLASS: Criterion not met
--
SEQUENCE TEXT: AUACAGCAAUAUUACGAGGU
ASSIGNED CLASS: Criterion not met
--
SEQUENCE TEXT: CAGCAGCAAUAUUACGGUUC
ASSIGNED CLASS: Criterion not met
--
SEQUENCE TEXT: CACCAGCAAUAUUACGGAGG
ASSIGNED CLASS: Criterion met
--
SEQUENCE TEXT: CGUUAGCAAUAUUACGCUAU
ASSIGNED CLASS: Criterion not met
--
SEQUENCE TEXT: GGAGAGCAAUAUUACGCGGG
ASSIGNED CLASS: Criterion not met
--
SEQUENCE TEXT: UAAAAGCAAUAUUACGCUCU
ASSIGNED CLASS: Criterion met
--
SEQUENCE TEXT: AUAAAGCAAUAUUACGACGU
ASSIGNED CLASS: Criterion met
--
SEQUENCE TEXT: UGAUAGCAAUAUUACGUUCG
ASSIGNED CLASS: Criterion met
--
SEQUENCE TEXT: GCUCAGCAAUAUUACGGAGA
ASSIGNED CLASS: Criterion met
--
SEQUENCE TEXT: CUAGAGCAAUAUUACGAUGG
ASSIGNED CLASS: Criterion met
--
SEQUENCE TEXT: UAACAGCAAUAUUACGCCCC
ASSIGNED CLASS: Criterion met
--
SEQUENCE TEXT: CAGAAGCAAUAUUACGGAUU
ASSIGNED CLASS: Criterion not met
--
SEQUENCE TEXT: CGGUAGCAAUAUUACGCAGG
ASSIGNED CLASS: Criterion met
--
SEQUENCE TEXT: GGUUAGCAAUAUUACGUUAU
ASSIGNED CLASS: Criterion met

====

List of self-splicing fitness (ln) values.
test: self-splicing fitness, log relative to wild type (ln ratio); higher = more splicing; Tetrahymena group I intron in knt gene, E. coli kanamycin selection, DiMSum; sequences stand for … in CUCUCU…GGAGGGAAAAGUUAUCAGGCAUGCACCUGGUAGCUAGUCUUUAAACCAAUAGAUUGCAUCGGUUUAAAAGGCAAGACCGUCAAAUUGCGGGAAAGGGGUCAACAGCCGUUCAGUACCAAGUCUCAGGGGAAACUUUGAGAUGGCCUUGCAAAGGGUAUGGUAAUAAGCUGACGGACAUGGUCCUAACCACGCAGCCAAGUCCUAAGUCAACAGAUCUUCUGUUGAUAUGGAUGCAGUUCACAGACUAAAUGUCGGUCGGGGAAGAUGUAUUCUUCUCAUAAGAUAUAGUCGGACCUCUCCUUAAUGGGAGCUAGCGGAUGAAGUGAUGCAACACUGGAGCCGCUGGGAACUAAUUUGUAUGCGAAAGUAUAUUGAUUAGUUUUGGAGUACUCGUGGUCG; details: 30 °C
MEASURE: self-splicing fitness (ln)

SEQUENCE TEXT: CCGAAGCAAUAUUACGCGUC
MEASURE: self-splicing fitness (ln)
RECORDED RESULT: -3.28
//
SEQUENCE TEXT: GACAAGCAAUAUUACGUAGU
MEASURE: self-splicing fitness (ln)
RECORDED RESULT: -3.92
//
SEQUENCE TEXT: GCUCAGCAAUAUUACGUCAC
MEASURE: self-splicing fitness (ln)
RECORDED RESULT: -3.37
//
SEQUENCE TEXT: GGCGAGCAAUAUUACGAUCC
MEASURE: self-splicing fitness (ln)
RECORDED RESULT: -0.772
//
SEQUENCE TEXT: GUGCAGCAAUAUUACGGACA
MEASURE: self-splicing fitness (ln)
RECORDED RESULT: -1.58
//
SEQUENCE TEXT: CAGAAGCAAUAUUACGGCGG
MEASURE: self-splicing fitness (ln)
RECORDED RESULT: -0.0667
//
SEQUENCE TEXT: UUUGAGCAAUAUUACGGUGG
MEASURE: self-splicing fitness (ln)
RECORDED RESULT: -2.98
//
SEQUENCE TEXT: AACUAGCAAUAUUACGGCAA
MEASURE: self-splicing fitness (ln)
RECORDED RESULT: -1.01
//
SEQUENCE TEXT: CUCAAGCAAUAUUACGAUAC
MEASURE: self-splicing fitness (ln)
RECORDED RESULT: -1.63
//
SEQUENCE TEXT: UGAAAGCAAUAUUACGACAA
MEASURE: self-splicing fitness (ln)
RECORDED RESULT: 0.219
//
SEQUENCE TEXT: AGCUAGCAAUAUUACGGCAA
MEASURE: self-splicing fitness (ln)
RECORDED RESULT: -0.629
//
SEQUENCE TEXT: GACUAGCAAUAUUACGUGCU
MEASURE: self-splicing fitness (ln)
RECORDED RESULT: -3.61
//
SEQUENCE TEXT: UCGGAGCAAUAUUACGGCCA
MEASURE: self-splicing fitness (ln)
RECORDED RESULT: -3.25
//
SEQUENCE TEXT: CUUAAGCAAUAUUACGUAUA
MEASURE: self-splicing fitness (ln)
RECORDED RESULT: -2.9
//
SEQUENCE TEXT: GUGGAGCAAUAUUACGACUU
MEASURE: self-splicing fitness (ln)
RECORDED RESULT: -2.79
//
SEQUENCE TEXT: CCGAAGCAAUAUUACGUAGG
MEASURE: self-splicing fitness (ln)
RECORDED RESULT: -3.15
